B1: Pistol ribozyme (parent)
chain: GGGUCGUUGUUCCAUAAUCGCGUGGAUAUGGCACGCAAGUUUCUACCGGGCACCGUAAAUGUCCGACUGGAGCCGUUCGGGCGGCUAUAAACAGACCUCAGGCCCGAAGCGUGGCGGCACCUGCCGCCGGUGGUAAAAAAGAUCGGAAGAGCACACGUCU

variants of: B1; assay: aptazyme ON/OFF ratio, guanine; higher = stronger switching; co-transcriptional cleavage with and without guanine
Measured aptazyme ON/OFF ratio of individual entries
Please state the value as a number alone, without comment.

Would you please look over these solved cases?
sequence variant	aptazyme ON/OFF ratio
U7C U8A G9A U11C C12U C13U	1.2
U8A G9U U10G	1.61
U7C G9U U10G U11C C13A	1.28
U7G U8A G9A U10A U11A C12A C13A	1.09
U7A U8G G9C U10G U11A C12A C13A	1.16

What value of aptazyme ON/OFF ratio has been recorded for this entry: U7G U8C G9U U10A U11C C12A C13G
1.33

Looking for the measured aptazyme ON/OFF ratio of U7G U8C U10G U11G C12G C13G , can you help?
1.08

Given the variant U7G U8A G9U C13A , what is its reported aptazyme ON/OFF ratio?
1.08

Record request: aptazyme ON/OFF ratio value, item U7G U8C G9U U11G C12A C13U
1.38

Need aptazyme ON/OFF ratio, item U7A U8G U11A C12U C13G
1.35
